B1: glmS ribozyme (parent)
chain: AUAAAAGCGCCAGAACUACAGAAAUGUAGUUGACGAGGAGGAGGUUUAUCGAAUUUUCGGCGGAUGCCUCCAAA

# Variants of: B1
# Assay summary: self-cleavage kobs at 40 uM GlcN6P; higher = faster cleavage; RNA array
# Setup conditions: with glucosamine-6-phosphate
Variants at the floor of the assay were thinned out.
Collected self-cleavage kobs at 40 uM GlcN6P values appear next to each entry.
Property: self-cleavage kobs at 40 uM GlcN6P

[[record]]
variant_notation = "A36U C67U C70G"
assay_value = "7.02e-05 s⁻¹"

[[record]]
variant_notation = "G62A A64G"
assay_value = "< 1e-05 s⁻¹"

[[record]]
variant_notation = "G35U U54C U56G A64U C70U"
assay_value = "< 1e-05 s⁻¹"

[[record]]
variant_notation = "A42U G62U"
assay_value = "< 1e-05 s⁻¹"

[[record]]
variant_notation = "A14U U55G C61G"
assay_value = "< 1e-05 s⁻¹"

[[record]]
variant_notation = "U54G U55A C70G"
assay_value = "6.4e-05 s⁻¹"

[[record]]
variant_notation = "U45G C71A"
assay_value = "3.27e-05 s⁻¹"

[[record]]
variant_notation = "G29C U65G C67U"
assay_value = "< 1e-05 s⁻¹"

[[record]]
variant_notation = "A36G G59U"
assay_value = "< 1e-05 s⁻¹"

[[record]]
variant_notation = "G63C A64U"
assay_value = "< 1e-05 s⁻¹"

[[record]]
variant_notation = "G9U C50U C70U"
assay_value = "< 1e-05 s⁻¹"

[[record]]
variant_notation = "C58U G60U"
assay_value = "< 1e-05 s⁻¹"

[[record]]
variant_notation = "A52G A53C"
assay_value = "< 1e-05 s⁻¹"

[[record]]
variant_notation = "C10G G37C U47A U57A G66C C70G"
assay_value = "< 1e-05 s⁻¹"

[[record]]
variant_notation = "C19U"
assay_value = "0.00125 s⁻¹"

[[record]]
variant_notation = "G9A U30C U31C C50A"
assay_value = "< 1e-05 s⁻¹"

